- assay.remarks: Aqueous solubility of compound at pH 7.4 measured for 1 hr by UV-plate reader analysis
- Type: physicochemical
- condition.notes: buffer
property.label: solubility at 1 h (mg/mL)
Numbers only, in mg/mL.

Lab note: C[C@]1(COc2ccc(S(=O)(=O)N3CCOCC3)cc2)Cn2cc([N+](=O)[O-])nc2O1 gave solubility at 1 h of 0.02

* * *

- assay.remarks: Aqueous solubility of compound at pH 2.0 measured for 1 hr by UV-plate reader analysis
- Format: physicochemical
- condition.notes: buffer
property.label: solubility at 1 h (µM)
One number for each entry, in µM.

compound.smiles: C[C@]1(CN2CCc3nc(-c4ccc(F)cc4)ccc3C2)Cn2cc([N+](=O)[O-])nc2O1
property.label: solubility at 1 h
measurement.units: µM
meas.value: 130

Next molecule, solubility at 1 h to be filled in.
// recorded solubility at 1 h for C[C@]1(CN2CCc3nc(-c4ccccc4)ccc3C2)Cn2cc([N+](=O)[O-])nc2O1 : 143
